# Target: HIV I reverse transcriptase (Human immunodeficiency virus type 1 group M subtype B, UniProt P03366)
# Test Method Notes: Reverse transcriptase inhibition assay (Roche kit, ELISA)
# pEC50 per entry
The scale used: pEC50 is minus the common logarithm of the concentration in molar units.

A selection of reference data follows.
N#Cc1ccc(Nc2nc(N)n(S(=O)(=O)c3cccc4cc(C#N)ccc34)n2)cc1 6.24
N#Cc1ccc2c(S(=O)(=O)n3nc(Nc4ccc(C#N)c(C#N)c4)nc3N)cccc2c1 5.87
N#Cc1ccc2c(S(=O)(=O)n3nc(Nc4ccc(C#N)c(Cl)c4)nc3N)cccc2c1 5.77

Shifting focus to the molecule that follows.
Entry N#C/C=C/c1ccc2c(S(=O)(=O)n3nc(Nc4ccc(CC#N)cc4)nc3N)cccc2c1 , pEC50 reported as 4.96

* * *

Quick reference for IC50 among some compounds
# Tested on: HIV-1 IIIB A17 variant (Y181C/K103N)
# Test Method Notes: HIV inhibition assay in TZM-bl cells, A17 variant
# Assay type: cell-based
# Test Conditions: Human immunodeficiency virus 1, IIIB, TZM-bl, read-out: IC50 (TZM, A17), Table 4, TZM-bl
Give the value, in units of nM, as a plain number.

Compound	IC50 (nM)
N#Cc1ccc2c(S(=O)(=O)n3nc(Nc4ccc(C#N)c(Cl)c4)nc3N)cccc2c1 [Compound 5]	15.7

// field: IC50; key: N#C/C=C/c1ccc2c(S(=O)(=O)n3nc(Nc4ccc(CC#N)cc4)nc3N)cccc2c1 [Compound 21] ; value = 13.8

// N#Cc1ccc2c(S(=O)(=O)n3nc(Nc4ccc(C#N)c(C#N)c4)nc3N)cccc2c1 [Compound 14] : IC50 value = 31.7

The compound listed as N#C/C=C/c1ccc2c(S(=O)(=O)n3nc(Nc4ccc(C#N)c(Cl)c4)nc3N)cccc2c1 [Compound 20] shows IC50 equal to 45.4

* * *

# Test Method Notes: Mouse liver microsome stability
# Format: in vitro ADME
# Test Conditions: mouse, liver microsomes
Property Label: microsomal CLint at 1 μM (µL/min/mg)
# unit: µL/min/mg | format: bare number

The molecule listed as N#C/C=C/c1ccc2c(S(=O)(=O)n3nc(Nc4ccc(C#N)c(Cl)c4)nc3N)cccc2c1 shows microsomal CLint at 1 μM equal to 11.1

* * *

# Test Method Notes: Human liver microsome stability
# Assay type: in vitro ADME
# Test Conditions: human, liver microsomes
Property Label: half-life at 1 μM

Given item N#C/C=C/c1ccc2c(S(=O)(=O)n3nc(Nc4ccc(C#N)c(Cl)c4)nc3N)cccc2c1 , the value recorded as its half-life at 1 μM is 53.8 min

* * *

# Test Method Notes: In vivo pharmacokinetics, plasma and brain
# Parameters: species or system Balb/C male mice
# Test Conditions: male, Balb/C, mouse, plasma, po, 250 mg/kg, plasma, 250 mg/kg intragastric, mean of mice groups
Property Label: half-life (h)
Give your result in h as a bare value.

Noted for Nc1nc(Nc2ccc(Cl)cc2)nn1S(=O)(=O)c1ccc2ccccc2c1 : its half-life reads 4.1

* * *

# Test Method Notes: in vitro
# Type: in vitro ADME, human
# Test Conditions: human, plasma, pH 7.4; 5 μM, dialysis 5 hours; read-out: Human plasma protein binding
Property Label: fraction unbound

Note to self: fraction unbound recorded for N#C/C=C/c1ccc2c(S(=O)(=O)n3nc(Nc4ccc(C#N)c(Cl)c4)nc3N)cccc2c1 was < 0.001

Provenance of the data: patent US20250179033A1
